# Assay system: rat GPR40 (FFAR1) (Rattus norvegicus)
# Construct: expressed in transfected cells
# Sequence (Q8K3T4 whole entry): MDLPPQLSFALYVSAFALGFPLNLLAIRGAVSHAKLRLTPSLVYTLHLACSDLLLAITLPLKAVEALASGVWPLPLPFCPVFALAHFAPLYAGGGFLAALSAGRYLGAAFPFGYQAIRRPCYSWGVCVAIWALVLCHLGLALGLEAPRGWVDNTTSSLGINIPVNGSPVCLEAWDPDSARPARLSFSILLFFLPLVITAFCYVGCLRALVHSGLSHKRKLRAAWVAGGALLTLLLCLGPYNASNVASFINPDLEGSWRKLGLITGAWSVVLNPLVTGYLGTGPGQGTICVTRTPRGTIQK
# Assay overview: IP1 functional assay, CHO cells stably expressing rat GPR40
# Type: cell-based
# Applied conditions: IP1 accumulation, CHO cells expressing rat GPR40; mean ± SD, N = 29
pEC50: −log10 of the molar value.

Compound | pEC50
O=C1NC(=O)C(C2CCOc3cc(Oc4ccc(C(F)(F)F)cc4Cl)ccc32)S1 (stereo not shown) [MK-2305] | 8.22

----------
# Assay system: Rat PPARα (Rattus norvegicus)
# Sequence (P37230 whole entry): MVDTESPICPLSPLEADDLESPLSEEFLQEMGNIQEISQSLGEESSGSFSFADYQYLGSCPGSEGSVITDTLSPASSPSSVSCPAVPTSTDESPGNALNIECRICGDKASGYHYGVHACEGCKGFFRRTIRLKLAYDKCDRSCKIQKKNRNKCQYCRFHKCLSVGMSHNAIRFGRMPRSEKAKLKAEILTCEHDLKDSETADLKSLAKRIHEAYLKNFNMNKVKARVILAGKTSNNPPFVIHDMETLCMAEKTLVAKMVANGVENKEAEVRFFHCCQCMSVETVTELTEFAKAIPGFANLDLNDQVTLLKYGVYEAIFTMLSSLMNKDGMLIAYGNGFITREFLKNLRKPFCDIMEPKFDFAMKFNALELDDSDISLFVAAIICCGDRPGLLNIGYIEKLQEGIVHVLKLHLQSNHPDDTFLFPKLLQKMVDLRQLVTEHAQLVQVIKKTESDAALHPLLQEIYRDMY
# Assay overview: cell-based nuclear receptor profiling (Indigo Biosciences), PPARα
pEC50: −log10 of the molar value.
Test readout: pEC50

Compound | Reported
O=C1NC(=O)C(C2CCOc3cc(Oc4ccc(C(F)(F)F)cc4Cl)ccc32)S1 (stereo not shown) [MK-2305] | < 5.00

----------
# Assay system: human GPR43 (FFAR2) (Homo sapiens, UniProt O15552)
# Sequence (O15552 whole entry): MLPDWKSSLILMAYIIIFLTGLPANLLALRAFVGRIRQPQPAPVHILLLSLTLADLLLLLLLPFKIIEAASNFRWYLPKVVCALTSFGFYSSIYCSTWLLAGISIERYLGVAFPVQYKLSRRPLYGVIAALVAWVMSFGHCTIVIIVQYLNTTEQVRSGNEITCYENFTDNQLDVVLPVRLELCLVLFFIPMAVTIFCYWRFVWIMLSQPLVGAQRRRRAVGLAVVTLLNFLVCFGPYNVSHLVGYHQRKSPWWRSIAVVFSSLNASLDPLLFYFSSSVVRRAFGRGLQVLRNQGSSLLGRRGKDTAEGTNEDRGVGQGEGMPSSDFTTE
# Assay overview: cAMP (LANCE) functional assay, CHO cells expressing human GPR43
# Applied conditions: cAMP, CHO cells expressing human GPR43
pEC50: −log10 of the molar value.
Test readout: pEC50

Compound | Assay system | Test readout | Reported
O=C1NC(=O)C(C2CCOc3cc(Oc4ccc(C(F)(F)F)cc4Cl)ccc32)S1 (stereo not shown) | human GPR43 (FFAR2) (Homo sapiens, UniProt O15552) | pEC50 | < 4.60

----------
# Assay system: Rat PPARδ (Rattus norvegicus)
# Sequence (Q62879 1-440): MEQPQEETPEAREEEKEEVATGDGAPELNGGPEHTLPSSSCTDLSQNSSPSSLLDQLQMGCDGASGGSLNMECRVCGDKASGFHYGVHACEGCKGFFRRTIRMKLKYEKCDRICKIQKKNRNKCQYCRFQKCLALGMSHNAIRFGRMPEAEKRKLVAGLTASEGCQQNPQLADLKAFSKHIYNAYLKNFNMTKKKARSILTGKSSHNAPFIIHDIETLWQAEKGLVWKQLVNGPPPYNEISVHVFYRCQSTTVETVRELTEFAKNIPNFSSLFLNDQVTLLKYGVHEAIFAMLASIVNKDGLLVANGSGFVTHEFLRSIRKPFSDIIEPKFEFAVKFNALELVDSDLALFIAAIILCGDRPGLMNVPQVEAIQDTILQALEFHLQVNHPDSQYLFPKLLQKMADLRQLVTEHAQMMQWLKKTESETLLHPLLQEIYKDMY
# Assay overview: cell-based nuclear receptor profiling (Indigo Biosciences), PPARδ
Test readout: EC50

Molecule | Reported
O=C1NC(=O)C(C2CCOc3cc(Oc4ccc(C(F)(F)F)cc4Cl)ccc32)S1 (stereo not shown) | > 10 µM

----------
# Assay system: Rat PPARγ (Rattus norvegicus)
# Sequence (O88275 238-505 limits assumed): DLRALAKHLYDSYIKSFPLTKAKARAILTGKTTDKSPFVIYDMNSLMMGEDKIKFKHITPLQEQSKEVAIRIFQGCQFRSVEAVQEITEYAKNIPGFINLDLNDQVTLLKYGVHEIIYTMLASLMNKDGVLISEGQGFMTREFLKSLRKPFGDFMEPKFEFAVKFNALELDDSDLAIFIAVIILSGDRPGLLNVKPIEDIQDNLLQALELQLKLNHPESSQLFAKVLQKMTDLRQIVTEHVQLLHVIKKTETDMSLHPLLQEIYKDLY
# Assay overview: cell-based nuclear receptor profiling (Indigo Biosciences), PPARγ
pEC50: −log10 of the molar value.

Compound | pEC50
O=C1NC(=O)C(C2CCOc3cc(Oc4ccc(C(F)(F)F)cc4Cl)ccc32)S1 (stereo not shown) | < 5.00

----------
# Assay system: rat GPR120 (FFAR4) (Rattus norvegicus)
# Sequence (Q2AC31 whole entry): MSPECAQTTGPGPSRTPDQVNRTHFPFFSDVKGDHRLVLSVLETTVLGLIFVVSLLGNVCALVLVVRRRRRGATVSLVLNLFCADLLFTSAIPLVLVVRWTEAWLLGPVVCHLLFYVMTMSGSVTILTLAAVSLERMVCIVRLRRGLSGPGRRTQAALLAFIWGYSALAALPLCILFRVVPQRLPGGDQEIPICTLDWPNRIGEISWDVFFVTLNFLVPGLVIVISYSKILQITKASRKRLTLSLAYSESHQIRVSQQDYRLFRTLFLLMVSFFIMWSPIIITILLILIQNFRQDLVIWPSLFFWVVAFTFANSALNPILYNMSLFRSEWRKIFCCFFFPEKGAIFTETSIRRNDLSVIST
# Assay overview: IP1 functional assay, HEK293 cells stably expressing rat GPR120
# Applied conditions: individual experiments (raw data of Table 1)

Molecule | EC50
O=C1NC(=O)C(C2CCOc3cc(Oc4ccc(C(F)(F)F)cc4Cl)ccc32)S1 (stereo not shown) [MK-2305] | > 10 µM
